// provenance: patent US11596716B2

# activation at 0.5 µM per record follows
System: C2C12 cells
experimental_protocol: Alkaline Phosphatase (ALP) functional activity assay in C2C12 cells
Format: cell-based, Mouse
stated_conditions: Mus musculus, C2C12, 144 h; compounds of Formula II or IV, presence of calcium phosphate matrix, normalized to DMSO treatment

Would you please look over these solved cases?
compound: COc1ccc(N[C@@H]2C[C@H](C)Nc3ccc(OC)cc32)cc1 (relative stereo) [Compound 11]
activation at 0.5 µM: 50 to 100%
--
compound: COc1ccc(C(=O)N2c3ccc(F)cc3[C@@H](N(C(=O)c3ccc(OC)cc3)c3ccc(F)cc3)C[C@@H]2C)cc1 (relative stereo) [Compound 30]
activation at 0.5 µM: 5 to 50%
--
compound: Cc1nc2c(-c3ccccc3)cnn2c(NCCC(C)C)c1C [Compound 32]
activation at 0.5 µM: < 5%
--
compound: C[C@H]1C[C@H](Nc2ccc(F)cc2)c2cc(F)ccc2N1C(=O)c1ccccc1 (relative stereo) [Compound 24]
activation at 0.5 µM: < 5%
--
compound: C[C@H]1C[C@H](Nc2ccccc2)c2ccccc2N1 (relative stereo) [Compound 8]
activation at 0.5 µM: 5 to 50%
--
compound: C[C@H]1C[C@H](N(C(=O)c2ccccc2)c2ccc(F)cc2)c2cc(F)ccc2N1C(=O)c1ccccc1 (relative stereo) [Compound 29]
activation at 0.5 µM: < 5%
--
compound: CC(=O)N1c2ccc(F)cc2[C@@H](Nc2ccc(F)cc2)C[C@@H]1C (relative stereo) [Compound 22]
activation at 0.5 µM: < 5%
--
compound: Cc1ccc(N[C@H]2C[C@H](C)Nc3ccc(C)cc32)cc1 (relative stereo) [Compound 6]
activation at 0.5 µM: < 5%

Next:
// sample C[C@H]1C[C@@H](Nc2ccccc2)c2ccccc2N1 (relative stereo) [Compound 7] , its activation at 0.5 µM was 5 to 50%
